As shown below, each of these molecules has a reported Emax value.
Molecular target: Kappa-type opioid receptor (Homo sapiens, UniProt P41145)
Sequence (P41145 whole entry): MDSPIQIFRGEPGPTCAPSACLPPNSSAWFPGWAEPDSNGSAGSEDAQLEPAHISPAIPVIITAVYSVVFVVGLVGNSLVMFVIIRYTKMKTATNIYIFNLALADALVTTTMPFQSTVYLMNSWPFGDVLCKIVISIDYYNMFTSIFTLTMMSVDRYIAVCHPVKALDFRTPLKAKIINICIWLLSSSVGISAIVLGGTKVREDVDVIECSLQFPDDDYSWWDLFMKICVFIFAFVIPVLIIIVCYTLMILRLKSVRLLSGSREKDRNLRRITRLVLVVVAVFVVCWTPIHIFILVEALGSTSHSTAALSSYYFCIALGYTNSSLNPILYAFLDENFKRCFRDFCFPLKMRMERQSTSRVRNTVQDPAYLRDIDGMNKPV
Assay: Agonist activity at human KOR stably expressed in CHO cell membranes assessed as stimulation of [35S]-GTPgammaS binding incubated for 1 hr by liquid scintillation counting assay relative to U69593
Format: functional
Conditions: time 60.0 min
Numbered stars: 1 amine (or outer) side, 2 acyl side, 3 side chain; on linkers, the order of the positions; unused ones are H or OH. Square brackets hold non-standard residues; d marks the D form. Peptide text beside a SMILES is read from it. X1 = O=C1[C@@H](N[*:1])Cc2ccccc2CN1CCC(=O)[*:2]; X2 = O=C([C@@H]1Cc2cc(O)ccc2CN1[*:1])[*:2]; Dmt = Cc1cc(O)cc(C)c1C[C@H](N)C(=O)O; mTyr = N[C@@H](Cc1cccc(O)c1)C(=O)O; Tle = CC(C)(C)[C@H](N)C(=O)O
Give a bare numeral; the unit % is implied.

>  <Molecule>
Cc1cc(O)cc(C)c1C[C@H](N)C(=O)N[C@H](CCCNC(=N)N)C(=O)N[C@H]1Cc2ccccc2CN(CCC(=O)N[C@@H](CCCNC(=N)N)C(=O)N[C@@H](CCCNC(=N)N)C(=O)N2CCC[C@H]2C(=O)N[C@@H](Cc2ccc(O)cc2)C(=O)N[C@H](C(=O)N[C@@H](CC(C)C)C(=O)O)C(C)(C)C)C1=O (H-[Dmt][dR][X1]RRPY[Tle]L-OH)

>  <Target Entity>
Kappa-type opioid receptor (Homo sapiens, UniProt P41145)

>  <Units>
%

>  <Emax>
34

$$$$
>  <Molecule>
Cc1cc(O)cc(C)c1C[C@H](N)C(=O)N[C@H](CCCNC(=N)N)C(=O)N[C@H]1Cc2ccccc2CN(CCC(=O)N[C@@H](CCCCN)C(=O)N[C@@H](CCCCN)C(=O)N2CCC[C@H]2C(=O)N[C@@H](Cc2cccc(O)c2)C(=O)N[C@H](C(=O)N[C@@H](CC(C)C)C(=O)O)C(C)(C)C)C1=O (H-[Dmt][dR][X1]KKP[mTyr][Tle]L-OH)

>  <Target Entity>
Kappa-type opioid receptor (Homo sapiens, UniProt P41145)

>  <Units>
%

>  <Emax>
30

$$$$
>  <Molecule>
Cc1cc(O)cc(C)c1C[C@H](NC(=O)[C@@H]1CCCN1C(=O)[C@H](CCCNC(=N)N)NC(=O)[C@H](CCCNC(=N)N)NC(=O)CCN1Cc2ccccc2C[C@H](NC(=O)[C@@H](CCCNC(=N)N)NC(=O)[C@@H](N)Cc2c(C)cc(O)cc2C)C1=O)C(=O)N[C@H](C(=O)N[C@@H](CC(C)C)C(=O)O)C(C)(C)C (H-[Dmt][dR][X1]RRP[Dmt][Tle]L-OH)

>  <Target Entity>
Kappa-type opioid receptor (Homo sapiens, UniProt P41145)

>  <Units>
%

>  <Emax>
37

$$$$

INPUT: Consider the molecule Cc1cc(O)cc(C)c1C[C@H](N)C(=O)N[C@H](CCCNC(=N)N)C(=O)N[C@H]1Cc2ccccc2CN(CCC(=O)N[C@@H](CCCNC(=N)N)C(=O)N[C@@H](CCCNC(=N)N)C(=O)N2CCC[C@H]2C(=O)N2Cc3ccc(O)cc3C[C@H]2C(=O)N[C@H](C(=O)N[C@@H](CC(C)C)C(=O)O)C(C)(C)C)C1=O (H-[Dmt][dR][X1]RRP[X2][Tle]L-OH) . State its measured Emax.
OUTPUT: 20
